Assayed Target: cIAP1-BIR2 (Homo sapiens (Human))
Sequence (Q13490 173-257): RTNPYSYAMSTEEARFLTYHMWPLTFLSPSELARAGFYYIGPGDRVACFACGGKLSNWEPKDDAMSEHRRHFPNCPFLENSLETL
Test Protocol: BIR binding assay (FRET competition), cIAP1 BIR2
pIC50: −log10 of the molar value.
Quantity: pIC50

>>> experimental_value("C[C@@H]1CN(CC(=O)N2CC(C)(C)c3[nH]c(=O)c(Cc4ccc(F)cc4)cc32)[C@@H](CN2CCO[C@H](C(=O)NCCCC(=O)N3CCN(C[C@H]4CN[C@H](C)CN4CC(=O)N4CC(C)(C)c5[nH]c(=O)c(Cc6ccc(F)cc6)cc54)[C@H](C)C3)C2)CN1")
"5.50 to 6.00"

Let us move to another entry and its pIC50.
QUERY: Assign pIC50 to the following record: `C[C@@H]1CN(CC(=O)N2CC(C)(C)c3[nH]c(=O)c(Cc4ccc(F)cc4)cc32)[C@@H](CN2CCO[C@H](C(=O)NCCNC(=O)[C@@H]3CN(C[C@H]4CN[C@H](C)CN4CC(=O)N4CC(C)(C)c5[nH]c(=O)c(Cc6ccc(F)cc6)cc54)CCO3)C2)CN1`
RESULT: 5.00 to 5.50

Where do these numbers come from? They come from patent US20250326771A1.
